I'd be grateful if you could share measured ED50 for these entries.
assay: Stomach juice secretion inhibition, method of Shay et al; settings: rat, in vivo; dose reducing volume of stomach juice secreted by 50% and total acidity by 50%; measure of dryness of the mouth; read-out: Stomach juice secretion inhibiting ED50 in rats
Structures can show the parent of a compound that is named as a salt.
Give bare numbers, in mg/kg.

{"columns": ["COMPOUND", "VALUE KIND", "MEASURED NUMBER"],
 "data": [
  ["Clc1cccc(Cl)c1NC1=NCCN1 [Clonidine . HCl, 2-(2,6-dichloroanilino)-2-imidazoline, reference compound]", "ED50", 0.04]
]}

Here's the next entry for you.
(Q) // ED50 lookup, key: Fc1cccc(Br)c1NC1=NCCN1 [monohydrochloride]
(A) 0.1
